measurement.notes: in vivo
condition: mouse, po, 100 mg/kg
endpoint.name: k el (s⁻¹)
Express your answer in s⁻¹, writing the number without its unit.

Consider the compound C[C@H]1c2cccc(O)c2C(=O)C2=C(O)[C@]3(O)C(=O)C(C(N)=O)=C(O)[C@@H](N(C)C)[C@@H]3[C@@H](O)[C@@H]21 [Doxycycline, doxycycline monohydrate] . State its measured k el.
7.5e-05

* * *

measurement.notes: in vivo
condition: mouse, po, 100 mg/kg
endpoint.name: AUC(0-t) (ng·h/mL)
The figure you give is taken to be in ng·h/mL; do not add the unit.

Consider the compound C[C@H]1c2cccc(O)c2C(=O)C2=C(O)[C@]3(O)C(=O)C(C(N)=O)=C(O)[C@@H](N(C)C)[C@@H]3[C@@H](O)[C@@H]21 [Doxycycline, doxycycline monohydrate] . State its measured AUC(0-t).
12700

* * *

measurement.notes: in vivo
condition: mouse, po, 100 mg/kg
endpoint.name: Tmax (h)
// note: answer is a bare numeric in h

Return the recorded Tmax value; entry: C[C@H]1c2cccc(O)c2C(=O)C2=C(O)[C@]3(O)C(=O)C(C(N)=O)=C(O)[C@@H](N(C)C)[C@@H]3[C@@H](O)[C@@H]21 [Doxycycline, doxycycline monohydrate]
1.24
